Here's a batch of molecules along with measured log10 of EC50 for ATP-dependent translocase ABCB1 (Homo sapiens, UniProt P08183).
In plain terms, each number is the log10 of measured EC50 in µM.

log10 of EC50 of CC(C)[C@@H](N[C@@H]1c2cc(C#N)ccc2OC(C)(C)[C@H]1O)C(=O)OC(C)(C)C on ATP-dependent translocase ABCB1 (Homo sapiens, UniProt P08183)?
0.67

log10 of EC50 of Cc1cccc(N2CCN(C[C@@H](O)COc3cccc4c3C(=O)[C@@H](Cc3ccccc3)C4)CC2)c1C on ATP-dependent translocase ABCB1 (Homo sapiens, UniProt P08183)?
-0.78

log10 of EC50 of O=C(c1ccccc1)c1ccc(OC[C@H](O)CN2CCN(c3ccc(F)cc3)CC2)cc1 on ATP-dependent translocase ABCB1 (Homo sapiens, UniProt P08183)?
-0.01

log10 of EC50 of Cc1ccc(NC(=S)N2CCN(C[C@@H](O)COc3ccccc3C(=O)c3ccccc3)CC2)cc1 on ATP-dependent translocase ABCB1 (Homo sapiens, UniProt P08183)?
-0.42

log10 of EC50 of O=C(CCc1ccccc1)c1cc(OCc2ccccc2)ccc1OC[C@H](O)CN1CCC(O)(c2ccccc2)CC1 on ATP-dependent translocase ABCB1 (Homo sapiens, UniProt P08183)?
-1.07

log10 of EC50 of Cc1cccc(N2CCN(C[C@@H](O)COc3ccc(C(=O)CCc4cccc5ccccc45)cc3)CC2)c1C on ATP-dependent translocase ABCB1 (Homo sapiens, UniProt P08183)?
-0.32

log10 of EC50 of CC(C)N(C[C@@H](O)COc1ccc(O)cc1C(=O)CCc1ccccc1)C(C)C on ATP-dependent translocase ABCB1 (Homo sapiens, UniProt P08183)?
0.02

log10 of EC50 of O=C(CCc1cccc2ccccc12)c1cccc(OC[C@H](O)CN2CCCCC2)c1 on ATP-dependent translocase ABCB1 (Homo sapiens, UniProt P08183)?
-0.84

log10 of EC50 of CC(=O)O[C@@H](COc1ccccc1C(=O)CCc1ccccc1)CN1CCCCC1 on ATP-dependent translocase ABCB1 (Homo sapiens, UniProt P08183)?
-0.47

log10 of EC50 of CC(=O)c1ccc(OC[C@H](O)CN2CCN(c3ccc(F)cc3)CC2)cc1 on ATP-dependent translocase ABCB1 (Homo sapiens, UniProt P08183)?
1.07

log10 of EC50 of CN[C@@H]1c2cc(C#N)ccc2OC(C)(C)[C@H]1O on ATP-dependent translocase ABCB1 (Homo sapiens, UniProt P08183)?
3.23

log10 of EC50 of CC(C)N(C[C@@H](O)COc1cccc(C(=O)CCc2cccc3ccccc23)c1)C(C)C on ATP-dependent translocase ABCB1 (Homo sapiens, UniProt P08183)?
-1.23

log10 of EC50 of COc1ccc(OC[C@H](O)CN2CCN(c3ccccc3C)CC2)c(C(=O)CCc2ccccc2)c1 on ATP-dependent translocase ABCB1 (Homo sapiens, UniProt P08183)?
-0.75

log10 of EC50 of CC(C)[C@@H](CO)N[C@H]1c2cc(C#N)ccc2OC(C)(C)[C@@H]1O on ATP-dependent translocase ABCB1 (Homo sapiens, UniProt P08183)?
2.01
